Where do these numbers come from? They come from ChEMBL document CHEMBL4513216.

- Assay overview: Toxicity liver stage against HepG2, at 10uM
- Type: cell-based
- Design: test concentration 10 uM, cell line HepG2-A16-CD81EGFP
- Particulars: human, HepG2-A16-CD81EGFP cells; read-out: INHIBITION
So I've got a bunch of compounds here, and I need their cytotoxicity at 10 µM values.

Here are 10 compounds together with their reported answers.
CC(C)NC(=O)N1Cc2nccn2CC(COc2cccnc2)C1 (stereo not drawn)	7.77%
CC(C)c1noc(C(C)N2CCC(c3nc4ccccc4o3)CC2)n1 (stereo not drawn)	8.05%
O=C(c1ccsc1)N1CCO[C@@H]2CN(Cc3ccco3)CC[C@@H]2C1	-98.6%
CCCOCCN1CCC2(CC1)CC(=O)N(Cc1cc(F)cc(F)c1)C2	2.71%
O=C(c1ccc2c(c1)OCO2)N1CCCC(n2cccn2)C1 (stereo not drawn)	-8.4%
CN1C[C@H]2CC[C@@H](C1)N(Cc1ccccc1OCCN1CCOCC1)C2	-3%
Cc1cnn(CC2CCCN2Cc2nc3ccccc3c(=O)[nH]2)c1 (stereo not drawn)	-4.82%
O=C1CC(NCc2cnc(N3CCCC3)nc2)CN1c1ccccc1 (stereo not drawn)	-4.56%
CC(C)c1cc(C(=O)N2CC[C@@H](c3ccc4c(c3)OCO4)[C@H](O)C2)[nH]n1	3.29%
Cc1oc(C)c(C(=O)N2CCN(Cc3cscn3)CC2)c1C	-10.6%

Here are 7 compounds. What values of cytotoxicity at 10 µM were reported for them?
1. N#Cc1ccc(CN2CCc3sccc3C2)c(F)c1
2. O=C(NCCc1cccnc1)Nc1cc(C(F)(F)F)c[nH]c1=O
3. Cc1nc(C2CCNC2)nc2c1CCC(=O)N2CC(C)C (stereo not drawn)
4. Nc1ncccc1CN1C[C@@H](C(=O)O)[C@H](c2cccc(F)c2)C1
5. Cc1nc(CCNC(=O)c2cc(C(C)C)nn2C)sc1C
6. CSCc1ccc(N2CCN(c3ccc(Cl)cn3)CC2)nc1
7. CCc1cccc(NC(=O)CCN2CC=C(c3cnn(C)c3)CC2)c1

OUTPUT:
1: -5.13%; 2: -12.2%; 3: 2.04%; 4: -11.1%; 5: 22.4%; 6: -9.64%; 7: 1.2%

Here are 4 compounds. What values of cytotoxicity at 10 µM were reported for them?
1. CC(=O)N1CCN(Cc2csc(-c3cnn(C)c3)n2)CC1
2. CC(C)c1noc(CN(C)C(=O)c2ccccc2-c2nc[nH]n2)n1
3. Cn1cccc1C(=O)N1C[C@@H]2COC[C@]2(CNS(C)(=O)=O)C1
4. CCN(CC)c1ncccc1CNCc1ccc(-c2ccn[nH]2)s1

OUTPUT:
1. -1.78%
2. 10.4%
3. 4.38%
4. 6.43%

Here are 4 compounds. What values of cytotoxicity at 10 µM were reported for them?
1. CCOCC1c2c(ncn2C)CCN1C(=O)c1cscn1 (stereo not drawn)
2. O=C(N[C@@H]1CCNC[C@H]1O)c1cc(F)cc(Cl)c1
3. CCN(Cc1cc(Cl)ccc1OC)Cc1nccn1C
4. COc1cc(C2CC(=O)Nc3c2nc2n3CCCC2)cc2c1OCO2 (stereo not drawn)

OUTPUT:
1: -98.2%; 2: -3.12%; 3: 1.87%; 4: -6.67%
